Test system: HEK-293T
Experiment: Multiplex assay against HEK293T
Type: toxicity, cell-based
Settings: human, 12 h, 1 µM, compound concentration 1 uM, replicate 1
Parameter class (string): assigned from measured Population Mitochondria Different-Phenotype (%). Ranges: category 1 (below 40%), category 2 (40% to below 50%), category 3 (50% or more)

Example entries and their recorded answers appear below.
molecule	label
CC(F)(F)CN1CCOc2c(nn(-c3ccccc3Cl)c2-c2ccc(Cl)cc2)C1=O	category 2
CCn1c(-c2nc3cc(C(=O)N4CCCC(N)C4)ccc3n2C)cc2ccccc21.Cl (stereo unspecified)	category 3

Would you mind sorting O=C(O)CCC/C=C\CC1C(O)CC(O)C1/C=C/C(O)COc1cccc(Cl)c1 (stereo unspecified) [CLOPROSTENOL] into the appropriate category?
category 2

Quick one: `COc1cc2nc(N3CCN(C(=O)COc4c(OC)cccc4C(C)C)CC3)nc(N)c2cc1OC.Cl.Cl`
category 2

Further, for COc1c(Nc2ccc(S(C)(=O)=O)nc2C)ncnc1OC1CCN(C(=O)OC(C)C)CC1 [ADP-597] ?
category 2

# repeat for CN1CCN2c3ccccc3Cc3ccccc3C2C1.Cl (stereo unspecified) [MIANSERIN HYDROCHLORIDE]
category 1

What do you have for `CCc1nn2c(C)cc(C)nc2c1Cc1ccc(-c2nnc(C3CCNCC3)o2)cc1` ?
category 3

Same question, Cc1ccc(OCC(O)C(C)NC(C)C)c2c1CCC2.Cl (stereo unspecified) this time
category 3

Entry `CC(C)(O)C(=O)N1CCN(c2ccc(C(F)(F)F)c(C3=C(c4c[nH]c5ccccc45)C(=O)NC3=O)c2)CC1` please
category 2

Do the same for COc1cc(Nc2ncc3c(n2)-c2ccc(Cl)cc2C(c2c(F)cccc2OC)=NC3)ccc1C(=O)O [ALISERTIB] please
category 2

Quick one: `COCCn1c(C)c(C)s/c1=N\C(=O)C1C(C)(C)C1(C)C`
category 2

Next up: `Cn1cc(C(=O)OCC2CCN(CCNS(C)(=O)=O)CC2)c2ccccc21`
category 1

Let us now turn to Cl.Cl.OCCOCCN1CCN(C(c2ccccc2)c2ccc(Cl)cc2)CC1 (stereo unspecified) [HYDROXYZINE HYDROCHLORIDE]
category 2

Follow-up entry: CN(C)C/C=C/C(=O)Nc1ccc(C(=O)N2CCCC(Nc3ncc(Cl)c(-c4c[nH]c5ccccc45)n3)C2)cc1 (stereo unspecified)
category 3

Okay, and COc1cc2nc(N3CCN(C(=O)c4ccco4)CC3)nc(N)c2cc1OC.Cl [PRAZOSIN HYDROCHLORIDE] ?
category 1

Now the same for O=c1ccc2ccc(OCCCCN3CCN(c4cccc5sccc45)CC3)cc2[nH]1 [BREXPIPRAZOLE]
category 3

Would you mind doing `O=C(Nc1cc(-c2ccccc2)nn1-c1ccccc1F)c1ccc([N+](=O)[O-])cc1` as well?
category 1

# repeat for CC(C)C[C@H](CO)Nc1nc(S[C@@H](C)c2ccccc2)nc2nc(N)sc12 [AZD-8797]
category 2
